# target_or_system: SMARCA2 (Homo sapiens, UniProt P51531)
# Sequence (P51531 whole entry): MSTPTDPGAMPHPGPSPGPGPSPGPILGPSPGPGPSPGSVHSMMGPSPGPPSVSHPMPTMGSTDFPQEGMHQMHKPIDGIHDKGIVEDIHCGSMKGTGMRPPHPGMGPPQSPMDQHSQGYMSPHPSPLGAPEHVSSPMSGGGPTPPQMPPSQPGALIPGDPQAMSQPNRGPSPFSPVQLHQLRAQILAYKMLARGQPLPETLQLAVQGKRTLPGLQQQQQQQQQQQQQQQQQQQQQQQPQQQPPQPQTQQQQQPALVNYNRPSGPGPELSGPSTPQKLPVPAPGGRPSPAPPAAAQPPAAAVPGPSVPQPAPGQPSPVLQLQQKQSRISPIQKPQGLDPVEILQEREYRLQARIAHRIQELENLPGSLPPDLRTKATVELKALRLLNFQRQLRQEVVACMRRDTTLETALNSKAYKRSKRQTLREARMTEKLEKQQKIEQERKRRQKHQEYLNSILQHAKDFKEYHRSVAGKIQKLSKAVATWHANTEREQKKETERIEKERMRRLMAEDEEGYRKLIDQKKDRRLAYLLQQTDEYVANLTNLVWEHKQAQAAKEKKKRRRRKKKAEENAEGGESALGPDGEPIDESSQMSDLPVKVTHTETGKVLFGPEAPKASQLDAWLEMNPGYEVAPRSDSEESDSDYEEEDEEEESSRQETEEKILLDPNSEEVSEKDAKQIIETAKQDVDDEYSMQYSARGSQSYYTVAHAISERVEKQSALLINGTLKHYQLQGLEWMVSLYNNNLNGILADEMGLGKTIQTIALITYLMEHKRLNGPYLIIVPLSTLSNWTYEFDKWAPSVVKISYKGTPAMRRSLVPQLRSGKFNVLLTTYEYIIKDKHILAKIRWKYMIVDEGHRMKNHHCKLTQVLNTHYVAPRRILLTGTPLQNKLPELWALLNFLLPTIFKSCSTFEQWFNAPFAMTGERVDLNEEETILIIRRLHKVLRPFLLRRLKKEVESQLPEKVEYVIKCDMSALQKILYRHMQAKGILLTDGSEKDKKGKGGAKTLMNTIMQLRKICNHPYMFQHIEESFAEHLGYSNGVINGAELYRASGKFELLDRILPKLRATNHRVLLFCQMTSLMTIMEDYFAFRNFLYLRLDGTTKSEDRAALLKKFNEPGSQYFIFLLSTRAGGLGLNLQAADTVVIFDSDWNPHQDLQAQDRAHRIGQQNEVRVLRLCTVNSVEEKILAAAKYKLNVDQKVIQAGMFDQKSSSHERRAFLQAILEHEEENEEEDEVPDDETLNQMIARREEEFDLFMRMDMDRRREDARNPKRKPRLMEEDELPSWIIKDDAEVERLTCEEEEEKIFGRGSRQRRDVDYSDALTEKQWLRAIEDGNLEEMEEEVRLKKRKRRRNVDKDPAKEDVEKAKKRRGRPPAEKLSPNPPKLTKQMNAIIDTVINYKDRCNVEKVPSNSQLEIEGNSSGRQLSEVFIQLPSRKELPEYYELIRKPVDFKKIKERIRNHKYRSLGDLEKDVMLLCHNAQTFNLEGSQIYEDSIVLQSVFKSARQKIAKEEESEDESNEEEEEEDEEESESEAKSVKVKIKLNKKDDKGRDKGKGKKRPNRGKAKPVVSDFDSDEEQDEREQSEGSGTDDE
# test_summary: MSD SMARCA2 degradation in A549 cell line
# Assay type: cell-based
# condition_summary: A549 cells, 24 h, read-out: SMARCA2 MSD A549 degradation 24 h: Average external-Abs DC50
Record form. Attribute: DC50. Fill in for each entry.

Documented DC50 of Cn1c(=O)n(C2CCC(=O)NC2=O)c2ccc([C@H]3CC[C@H](N4CCC(c5cnc(N6C7CCC6CN(c6cc(-c8ccccc8O)nnc6N)C7)nc5)CC4)CC3)cc21 (some centres unmarked) [I-291] : < 100 nM

Documented DC50 of Cc1ncsc1-c1ccc(CNC(=O)[C@@H]2C[C@@H](O)CN2C(=O)[C@@H](NC(=O)[C@H]2C[C@@H](N(C)Cc3cnc(N4C5CCC4CN(c4cc(-c6ccccc6O)nnc4N)C5)nc3)C2)C(C)(C)C)cc1 [I-370] : 100 to 500 nM

Documented DC50 of Cc1ncsc1-c1ccc(CNC(=O)[C@@H]2C[C@@H](O)CN2C(=O)[C@@H](NC(=O)[C@H]2C[C@]3(C[C@H](CN4CCC(c5cnc(N6C7CCC6CN(c6cc(-c8ccccc8O)nnc6N)C7)nc5)CC4)C3)C2)C(C)(C)C)cc1 (some centres unmarked) [I-427] : < 100 nM

Documented DC50 of Cc1ncsc1-c1ccc(CNC(=O)[C@@H]2C[C@@H](O)CN2C(=O)[C@@H](NC(=O)COCC#Cc2cnc(N3C4CCC3CN(c3cc(-c5ccccc5O)nnc3N)C4)nc2)C(C)(C)C)cc1 [I-340] : 100 to 500 nM

Documented DC50 of Cc1ncsc1-c1ccc(CNC(=O)[C@@H]2C[C@@H](O)CN2C(=O)[C@@H](NC(=O)C2(F)CC2)C2CCC(N(C)CCCC#Cc3cnc(N4C5CCC4CN(c4cc(-c6ccccc6O)nnc4N)C5)nc3)CC2)cc1 (some centres unmarked) [I-517] : 501 to 1000 nM
